The values you see were collected from patent US9434711B2.

molecular target: canine TRPM8 (Canis lupus familiaris, UniProt Q1A7N1); test: In Vitro Canine TRPM8 Functional Assay (Ca2+ fluorescence, icilin activation); assay type: cell-based; details: HEK293 cells stably expressing canine TRPM8; icilin activation; eight-point dose-response; read-out: IC50
Sequence (Q1A7N1 1-1104): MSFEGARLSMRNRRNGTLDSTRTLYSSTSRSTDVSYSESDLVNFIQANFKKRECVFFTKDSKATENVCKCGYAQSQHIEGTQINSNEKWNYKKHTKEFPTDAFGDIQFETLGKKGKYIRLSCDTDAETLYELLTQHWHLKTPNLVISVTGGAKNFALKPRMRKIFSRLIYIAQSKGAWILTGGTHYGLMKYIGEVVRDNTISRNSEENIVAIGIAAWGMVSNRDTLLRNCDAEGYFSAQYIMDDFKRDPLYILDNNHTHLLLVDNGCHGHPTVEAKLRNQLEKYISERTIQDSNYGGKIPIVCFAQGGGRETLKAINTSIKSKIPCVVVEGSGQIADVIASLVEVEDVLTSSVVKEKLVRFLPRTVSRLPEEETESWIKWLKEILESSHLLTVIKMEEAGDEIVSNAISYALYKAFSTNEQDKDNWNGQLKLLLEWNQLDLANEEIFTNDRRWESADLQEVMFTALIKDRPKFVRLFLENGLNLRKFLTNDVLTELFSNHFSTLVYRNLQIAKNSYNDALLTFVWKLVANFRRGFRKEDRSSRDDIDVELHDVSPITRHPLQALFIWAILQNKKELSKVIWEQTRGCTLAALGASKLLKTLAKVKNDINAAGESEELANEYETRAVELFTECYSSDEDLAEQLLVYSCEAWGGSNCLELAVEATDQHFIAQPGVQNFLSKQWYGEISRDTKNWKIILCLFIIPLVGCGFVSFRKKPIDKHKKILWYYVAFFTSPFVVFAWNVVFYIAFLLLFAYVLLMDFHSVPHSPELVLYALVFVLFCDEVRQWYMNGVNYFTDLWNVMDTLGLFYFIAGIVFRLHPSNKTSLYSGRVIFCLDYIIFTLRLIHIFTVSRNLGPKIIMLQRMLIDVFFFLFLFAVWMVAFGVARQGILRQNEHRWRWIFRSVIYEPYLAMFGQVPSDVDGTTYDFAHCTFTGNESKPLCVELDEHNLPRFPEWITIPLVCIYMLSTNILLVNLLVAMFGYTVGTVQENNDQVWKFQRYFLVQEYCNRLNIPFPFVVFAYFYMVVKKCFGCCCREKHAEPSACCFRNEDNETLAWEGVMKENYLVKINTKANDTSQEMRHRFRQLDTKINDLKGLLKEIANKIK
assay.metric: IC50 (nM)

* O=S(=O)(c1ccccc1)N(Cc1ccccc1)c1cc2ccccc2s1 | 44.5

a = Cc1c(N(CCCC(F)(F)F)S(=O)(=O)c2cccc(C#N)c2)sc2ccccc12
b = CCS(=O)(=O)N(CC1CCCN1C(=O)OC(C)(C)C)c1sc2ccccc2c1C (centres unmarked)
c = O=S(=O)(c1ccccc1)N(Cc1ccc(F)c(C(F)(F)F)c1)c1sc2ccccc2c1Cl
Q) Rank items: key IC50, increasing. I would appreciate it if you listed the labels in the requested order.
A) c, b, a
(c: 7.3 nM, b: 51.1 nM, a: 88.6 nM)
